# assay.system: Toll-like receptor 7 (Homo sapiens)
# Sequence (Q9NYK1 whole entry): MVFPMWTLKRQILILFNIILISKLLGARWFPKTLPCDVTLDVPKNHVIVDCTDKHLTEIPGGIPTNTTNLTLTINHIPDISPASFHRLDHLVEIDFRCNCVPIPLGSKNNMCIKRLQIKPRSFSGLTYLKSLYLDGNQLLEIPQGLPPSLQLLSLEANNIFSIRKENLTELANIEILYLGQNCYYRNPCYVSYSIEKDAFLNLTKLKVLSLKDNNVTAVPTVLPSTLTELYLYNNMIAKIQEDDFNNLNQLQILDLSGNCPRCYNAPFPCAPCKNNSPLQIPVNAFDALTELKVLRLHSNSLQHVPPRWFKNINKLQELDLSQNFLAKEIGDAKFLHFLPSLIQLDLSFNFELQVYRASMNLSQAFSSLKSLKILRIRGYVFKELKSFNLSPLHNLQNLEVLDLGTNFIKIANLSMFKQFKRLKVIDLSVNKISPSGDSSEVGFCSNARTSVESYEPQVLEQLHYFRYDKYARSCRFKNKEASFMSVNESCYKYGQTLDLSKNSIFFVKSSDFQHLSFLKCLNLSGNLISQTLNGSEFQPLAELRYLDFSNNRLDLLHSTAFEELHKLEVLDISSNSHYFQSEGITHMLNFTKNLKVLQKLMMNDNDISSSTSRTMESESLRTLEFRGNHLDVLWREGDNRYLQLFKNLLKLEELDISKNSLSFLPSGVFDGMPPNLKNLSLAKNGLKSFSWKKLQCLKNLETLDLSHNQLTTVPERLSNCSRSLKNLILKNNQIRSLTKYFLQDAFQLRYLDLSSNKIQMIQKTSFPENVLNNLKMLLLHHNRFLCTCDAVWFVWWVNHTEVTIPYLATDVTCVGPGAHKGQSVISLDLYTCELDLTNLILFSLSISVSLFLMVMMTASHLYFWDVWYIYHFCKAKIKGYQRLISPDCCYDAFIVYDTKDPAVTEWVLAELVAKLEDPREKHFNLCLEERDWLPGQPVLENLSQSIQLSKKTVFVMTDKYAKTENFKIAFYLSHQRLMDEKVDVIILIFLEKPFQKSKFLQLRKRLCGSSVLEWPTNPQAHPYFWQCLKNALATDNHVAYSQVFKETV
# method.summary: HEK-Blue™ TLR7 cells were added to each well of a 384-well tissue-culture plate (15,000 cells per well) and incubated 16-18 h at 37° C., 5% CO2. Compounds (100 nl) were dispensed into wells containing the HEK-Blue™ TLR cells and the treated cells were incubated at 37° C., 5% CO2. After 18 h treatment ten microliters of freshly-prepared Quanti-Blue™ reagent (Invivogen) was added to each well, incubated for 30 min (37° C., 5% CO2) and SEAP levels measured using an Envision plate reader (OD=620 nm).
quantity: EC50 (nM)
State the answer as a number, implicitly in nM.

## Task # query: EC50 of entry CCCCOc1nc(N)c2nc(O)n(Cc3cccc(Oc4cccc(CNC5CC(F)(F)C5)c4)c3)c2n1
## Result 525

## Task Please do the same for CCCCOc1nc(N)c2nc(O)n(Cc3ccc(Oc4ccc(CNC5CCOCC5)cc4)c(F)c3)c2n1 as well.
## Result 1.2

## Task And the next one, CCCCOc1nc(N)c2nc(O)n(Cc3ccc(Oc4ccc(CNCC(C)C)cc4)nc3)c2n1 ?
## Result 0.54

## Task Next: CCCCOc1nc(N)c2nc(O)n(Cc3ccc(Oc4ccc(CNC5CCOCC5)nc4)nc3)c2n1
## Result 1.12

## Task Now try CCCCOc1nc(N)c2nc(O)n(Cc3ccc(Oc4ccc(CNCC(C)C)nc4)nc3)c2n1 .
## Result 2.22

## Task Same for CCCCOc1nc(N)c2nc(O)n(Cc3ccc(Oc4ccc(CNCC(F)F)cc4)nc3)c2n1
## Result 2.9

## Task Repeat with CCCCOc1nc(N)c2nc(O)n(Cc3ccc(Oc4cccc(CNC5COC5)n4)cc3)c2n1
## Result 4.27

## Task Repeat for the following compound: CCCCOc1nc(N)c2nc(O)n(Cc3ccc(Oc4ccc(CNC5CCC5)cc4)nc3)c2n1
## Result 0.91

## Task Please give the result for CCCCOc1nc(N)c2nc(O)n(Cc3ccc(Nc4ccc(CNCCO)cc4)nc3)c2n1 too.
## Result 5.8

## Task Then CCCCOc1nc(N)c2nc(O)n(Cc3cccc(Oc4cccc(CNC5CCC5)c4)c3)c2n1 ?
## Result 435
